assay: In-situ salt formation screen (filtrate solubility); type: physicochemical; settings: aqueous buffer, thermodynamic from solid; 0.1M aqueous Sulfuric Acid; filtrate pH 1.39; filtrant Salt; read-out: Filtrate Solubility
Quantity Name: solubility at 48 h (µg/mL)
Could you give me the number in µg/mL? Just the number is fine.

Q. Name the recorded solubility at 48 h for CN1CCN(c2ncc(-c3cccs3)n3nnnc23)CC1 .
A. 560

---

molecular target: human H4 (Homo sapiens, UniProt Q9H3N8); construct: host or cells: CHO-K1; assay: In vitro histamine receptor cell-based assay (aequorin bioluminescence), agonist mode; conditions: CHO-K1 cells expressing human H4; test compound alone, without added histamine
Sequence (Q9H3N8 whole entry): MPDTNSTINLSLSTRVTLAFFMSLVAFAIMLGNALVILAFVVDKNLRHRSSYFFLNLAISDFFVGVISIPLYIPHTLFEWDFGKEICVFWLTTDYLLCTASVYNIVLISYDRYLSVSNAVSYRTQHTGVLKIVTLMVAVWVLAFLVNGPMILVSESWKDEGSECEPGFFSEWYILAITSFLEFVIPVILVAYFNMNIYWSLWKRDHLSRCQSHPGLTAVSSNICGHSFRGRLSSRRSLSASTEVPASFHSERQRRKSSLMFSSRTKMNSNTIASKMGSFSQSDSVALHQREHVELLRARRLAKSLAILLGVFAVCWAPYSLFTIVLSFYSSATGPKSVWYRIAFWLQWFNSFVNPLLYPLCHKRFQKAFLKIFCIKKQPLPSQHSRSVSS
Quantity Name: EC50

CNC1CN(c2ncc(-c3cccs3)n3nnnc23)C1 ... > 100 µM

In the following, a different compound is considered.
Q. Name the recorded EC50 for CN1CCN(c2ncc(-c3cccs3)n3nnnc23)CC1 .
A. > 100 µM

---

assay: In-situ salt formation screen (filtrate solubility); format: physicochemical; settings: aqueous buffer, thermodynamic from solid; 0.1M aqueous Acetic Acid; filtrate pH 4.02; filtrant Free Base; read-out: Filtrate Solubility
Quantity Name: solubility at 48 h (µg/mL)
Could you give me the number in µg/mL? Just the number is fine.

Q. Name the recorded solubility at 48 h for CN1CCN(c2ncc(-c3cccs3)n3nnnc23)CC1 .
A. 7990
